experiment: soluble on expression in E. coli; label from the status in PepcDB or PDB records

sequence.content | soluble on expression in E. coli
MNDPLDSLSNDEFEIIETFDPETEDREDQWSIQQSIRIEPISIQMPNTLQSQRAPSPVGSKAPESLKDEDPDRTPEASIVETPLLTETLKEDRTPMSTPLASLVNSSQSPEFTLQNMSIVSESECSNNSSLVNVADVESTEIALRTSLLLVSELKSQLQAAKMSESTLLKSNSNHEIEENKKLSEKMEVMKNEFELKMQESAASVEKVIQEKDSAIEQLKVQLAQSQQVAELWKQGAEKNSNAQYSDSKTTIDRLLEENSKLRNLVDEEVARRLEESERRKLAEDQLKHARGGSVFDPPASFVASQLAERTTYSLNLEHELITLRKELEETKEALKKSVEESSNKDEIVSALHEDQQESTRMLASNEQVINSLKQKCRQLGVLEDFSS | soluble
MAIRVIGTGFGRTGTDSMREALTILGFGPCHHMSEVMGNEDQKRLWRALAKGAAPDWNQLFAGYASCIDWPSAHYWRDLIEFYPKARVILTYRSPESWWASFEKTILAGISQSTDQESLGLALISRQVFDGRPHDRANAIAVYEANVRAVIATVPPSRLLVHNLGDGWKPLCLHLDVPVPDKPYPNRNTTKDFQSALAQN | soluble
MTKPSVGINGFGRIGRLVLRAAVEKDSVNVVAVNDPFISIDYMVYLFQYDSTHGRFKGTVAHEGDYLLVAKEGKSQHKIKVYNSRDPAEIQWGASGADYVVESTGVFTTIEKANAHLKGGAKKVIISAPSADAPMFVVGVNHEKYDHANDHIISNASCTTNCLAPLAKVINDNFGIIEGLMTTVHAVTATQKTVDGPSGKLWRDGRGAGQNIIPASTGAAKAVGKVIPELNGKLTGMAFRVPTPDVSVVDLTARLEKPASLDDIKKVIKAAADGPMKGILAYTEDQVVSTDFVSDTNSSIFDAGASISLNPHFVKLVSWYDNEFGYSNRVVDLISYIATKA | soluble

---

test: soluble on expression in E. coli; label from the status in PepcDB or PDB records
measurement.kind: soluble on expression in E. coli

Observe how each entry below is paired with its result.
sequence.content | soluble on expression in E. coli
MGSDKIHHHHHHMESTMKLATAPDAWGVWYADDPRQTPWERYLDEVRDSGFTATETGPWGYLPTDPSHLTDALGSRGLSVCGSALVHLLAPADAMETLRPRLEQTCGLLKAMKAEWVVLMDDSDLPLPGQSRALSPHDWASMIRNIKDAARYVTEEHGLSFVFHPHVGSGVETEAEVIRLLEETSEDSVGLCFDFGHHAYTGADAVAFMKRYADRIPYYHFKNVDPVLLAHIRQNNINFIEGFQSGVMCELDKGMVDFAEVRDFLATRGFDGYAVYEQDMYPCPPEKPFPIACHNRQVLRELGI | not soluble
MSLIYLRKANERGHANHGWLDSWHTFSFANYYDPNFMGFSALRVINDDVIEAGQGFGTHPHKDMEILTYVLEGTVEHQDSMGNKEQVPAGEFQIMSAGTGIRHSEYNPSSTERLHLYQIWIMPEENGITPRYEQRRFDAVQGKQLVLSPDARDGSLKVHQDMELYRWALLKDEQSVHQIAAERRVWIQVVKGNVTINGVKASTSDGLAIWDEQAISIHADSDSEVLLFDLPPVEGGSHHHHHH | soluble
MGSDKIHHHHHHMGRRGLMTETTYYVNGTEVYVAEIPSNQSTETFFLIHGFVSSTYSYRKLMPLLAKRGRVISVDLPGFGRSGKGRTFTYSFQCYAELMVALMRKLNVSKVTFVGHSMGGQVALYVAKWKPHLVKRLVLLSSSGYLQRVKRPFYFLSYIPFLRQMVKWYVQRQDVTKALQQVVYNKGIVNNEAVEMYRLPLADETFYDALLCLMRQREGDLPKEELRKIHHPVLLLWGEQDRVIPVKIGQRLASDLPNASLIVYKNTGHLLPEERPKEIMKAIDRFIRKRRQFSFFS | not soluble
MLNLSRLSRKLLGWLGRPLSAAHSGEVRQRGPQTHVIILDGTMSTLEPGRETHAGQTYRLMCEMGARVSVFYEAGVQWTSWRTTPDVMMGRGLNRQIRRAYGYLASRYRPGDRIFLIGYSRGAYAVRSLAGVIDMVGLLKAEHATVRNIRQAYRHYECDVQGPHAQVFRDLYCHRDVMIEMVGVWDTVKALGLRLPVLWRLSEQRHAFHSHHLGRSVRHGYHALALNETRNVFEPILWDCKPEFRGHVEQVWFRGTHGDVGGQLGGDERARPLANLSLVWMLERAEHLGLPLPKDWHARFPTDPNAPSVGTWSGWGKIFLLRSARTVGRDPSERLHESVIGDTLPEGLPAPYLRSRSFGLEHHHHHH | soluble

--- query ---
Inquiry: Entry under review: MAVYTDITEDELRNFLTQYDVGSLTSYKGIAEGVENSNFLLHTTKDPLILTLYEKRVEKNDLPFFLGLMQHLAAKGLSCPLPLPRKDGELLGELSGRPAALISFLEGMWLRKPEAKHCREVGKALAAMHLASEGFEIKRPNALSVDGWKVLWDKSEERADEVEKGLREEIRPEIDYLAAHWPKDLPAGVIHADLFQDNVFFLGDELSGLIDFYFACNDLLAYDVSICLNAWCFEKDGAYNVTKGKALLEGYQSVRPLSEAELEALPLLSRGSALRFFLTRLYDWLTTPAGALVVKKDPLEYLRKLRFHRTIANVAEYGLAGE . Reported soluble on expression in E. coli?
Reply text: soluble

Origin of the recorded values: the DeepSol protein solubility set
